Protocol Notes: PK of compound of Formula (Ia) after single subcutaneous dose of solution formulations in Wistar Han rats
Type: in vivo
Run Parameters: male, Wistar Han, rat, plasma, sc, 50 mg/kg, 7392 h; mean, n = 3 rats; SC 50 mg/kg; solution S, 500 mg/mL
Protocol: Formulations containing the compound of Formula (Ia), or a pharmaceutically acceptable salt thereof, were prepared as solutions and optionally administered subcutaneously or intramuscularly to rats, rabbits, and/or dogs. A solution of about 400 mg/mL of the compound of Formula (Ia) having 19.14 w/w % water, 40.66 w/w % PEG 300, 35.20 w/w % of a sodium salt of a compound of Formula (Ia), and 5.00% ethanol was prepared. […]
Property Label: concentration at 7392 h (µM)
Write down the numeric answer in µM and omit the unit.

Would you kindly share the measured concentration at 7392 h for CC(C)(C#Cc1ccc(-c2ccc(Cl)c3c(NS(C)(=O)=O)nn(CC(F)(F)F)c23)c([C@H](Cc2cc(F)cc(F)c2)NC(=O)Cn2nc(C(F)(F)F)c3c2C(F)(F)[C@@H]2C[C@H]32)n1)S(C)(=O)=O [compound of Formula (Ia)] ?
0.0294

----------
Protocol Notes: PK of compound of Formula (Ia) after single subcutaneous dose of solution formulations in Wistar Han rats
Type: in vivo
Run Parameters: male, Wistar Han, rat, plasma, sc, 50 mg/kg, Wistar Han rats, SC 50 mg/kg, 400 mg/mL solution Z (3.13% poloxamer 188), 96.0 h, Mean n = 4
Property Label: concentration at 96 h (nM)
Write down the numeric answer in nM and omit the unit.

Would you kindly share the measured concentration at 96 h for CC(C)(C#Cc1ccc(-c2ccc(Cl)c3c(NS(C)(=O)=O)nn(CC(F)(F)F)c23)c([C@H](Cc2cc(F)cc(F)c2)NC(=O)Cn2nc(C(F)(F)F)c3c2C(F)(F)[C@@H]2C[C@H]32)n1)S(C)(=O)=O [compound of Formula (Ia)] ?
147

----------
Protocol Notes: PK of compound of Formula (Ia) after single subcutaneous dose of solution formulations in beagle dogs
Type: in vivo
Run Parameters: male, beagle, dog, plasma, sc, 12 mg/kg, beagle dogs, SC 12 mg/kg, 400 mg/mL solution AA (6.25% poloxamer 188), 1008 h, Mean n = 3
Property Label: concentration at 1008 h
The reply must contain the numeric value and, after it, the unit.

Would you kindly share the measured concentration at 1008 h for CC(C)(C#Cc1ccc(-c2ccc(Cl)c3c(NS(C)(=O)=O)nn(CC(F)(F)F)c23)c([C@H](Cc2cc(F)cc(F)c2)NC(=O)Cn2nc(C(F)(F)F)c3c2C(F)(F)[C@@H]2C[C@H]32)n1)S(C)(=O)=O ?
0.0854 µM

----------
Protocol Notes: PK of compound of Formula (Ia) after single subcutaneous dose of solution formulations in Wistar Han rats
Format: in vivo
Run Parameters: male, Wistar Han, rat, plasma, sc, 50 mg/kg, 336 h; individual rats; SC 50 mg/kg; solution V, 300 mg/mL
Property Label: concentration at 336 h
The reply must contain the numeric value and, after it, the unit.

Would you kindly share the measured concentration at 336 h for CC(C)(C#Cc1ccc(-c2ccc(Cl)c3c(NS(C)(=O)=O)nn(CC(F)(F)F)c23)c([C@H](Cc2cc(F)cc(F)c2)NC(=O)Cn2nc(C(F)(F)F)c3c2C(F)(F)[C@@H]2C[C@H]32)n1)S(C)(=O)=O [compound of Formula (Ia)] ?
194 nM

----------
Protocol Notes: PK of compound of Formula (Ia) after single subcutaneous dose of solution formulations in beagle dogs
Format: in vivo
Run Parameters: male, beagle, dog, plasma, sc, 12 mg/kg, beagle dogs, SC 12 mg/kg, 400 mg/mL solution AA (6.25% poloxamer 188), 672 h, Mean n = 3
Property Label: concentration at 672 h (nM)
Write down the numeric answer in nM and omit the unit.

Would you kindly share the measured concentration at 672 h for CC(C)(C#Cc1ccc(-c2ccc(Cl)c3c(NS(C)(=O)=O)nn(CC(F)(F)F)c23)c([C@H](Cc2cc(F)cc(F)c2)NC(=O)Cn2nc(C(F)(F)F)c3c2C(F)(F)[C@@H]2C[C@H]32)n1)S(C)(=O)=O [compound of Formula (Ia)] ?
183

----------
Protocol Notes: PK of compound of Formula (Ia) after single subcutaneous dose of solution formulations in beagle dogs
Format: in vivo
Run Parameters: male, beagle, dog, plasma, sc, 12 mg/kg, 1680 h; individual dogs; SC 12 mg/kg; solution T, 400 mg/mL
Property Label: concentration at 1680 h (nM)
Write down the numeric answer in nM and omit the unit.

Would you kindly share the measured concentration at 1680 h for CC(C)(C#Cc1ccc(-c2ccc(Cl)c3c(NS(C)(=O)=O)nn(CC(F)(F)F)c23)c([C@H](Cc2cc(F)cc(F)c2)NC(=O)Cn2nc(C(F)(F)F)c3c2C(F)(F)[C@@H]2C[C@H]32)n1)S(C)(=O)=O ?
19.9

----------
Protocol Notes: PK of compound of Formula (Ia) after single subcutaneous dose of solution formulations in beagle dogs
Type: in vivo
Run Parameters: male, beagle, dog, plasma, sc, 6 mg/kg, 2352 h; individual dogs; SC 6 mg/kg; solution V, 300 mg/mL
Property Label: concentration at 2352 h (nM)
Write down the numeric answer in nM and omit the unit.

Would you kindly share the measured concentration at 2352 h for CC(C)(C#Cc1ccc(-c2ccc(Cl)c3c(NS(C)(=O)=O)nn(CC(F)(F)F)c23)c([C@H](Cc2cc(F)cc(F)c2)NC(=O)Cn2nc(C(F)(F)F)c3c2C(F)(F)[C@@H]2C[C@H]32)n1)S(C)(=O)=O [compound of Formula (Ia)] ?
4.5

----------
Protocol Notes: PK of compound of Formula (Ia) after single subcutaneous dose of solution formulations in Wistar Han rats
Type: in vivo
Run Parameters: male, Wistar Han, rat, plasma, sc, 50 mg/kg, male Wistar Han rats, single SC 50 mg/kg, 400 mg/mL solution AA (6.25% poloxamer 188), mean ± SD, n = 4; read-out: AUC0-168 h
Property Label: AUC(0-t) (µM·h)
Write down the numeric answer in µM·h and omit the unit.

Would you kindly share the measured AUC(0-t) for CC(C)(C#Cc1ccc(-c2ccc(Cl)c3c(NS(C)(=O)=O)nn(CC(F)(F)F)c23)c([C@H](Cc2cc(F)cc(F)c2)NC(=O)Cn2nc(C(F)(F)F)c3c2C(F)(F)[C@@H]2C[C@H]32)n1)S(C)(=O)=O ?
32.4

----------
Protocol Notes: PK of compound of Formula (Ia) after single subcutaneous dose of solution formulations in Wistar Han rats
Format: in vivo
Run Parameters: male, Wistar Han, rat, plasma, sc, 50 mg/kg, mean ± SD, n = 3 rats; SC 50 mg/kg; solution R, 400 mg/mL; read-out: AUC0-336h
Property Label: AUC(0-t) (µM·h)
Write down the numeric answer in µM·h and omit the unit.

Would you kindly share the measured AUC(0-t) for CC(C)(C#Cc1ccc(-c2ccc(Cl)c3c(NS(C)(=O)=O)nn(CC(F)(F)F)c23)c([C@H](Cc2cc(F)cc(F)c2)NC(=O)Cn2nc(C(F)(F)F)c3c2C(F)(F)[C@@H]2C[C@H]32)n1)S(C)(=O)=O [compound of Formula (Ia)] ?
60.6

----------
Protocol Notes: PK of compound of Formula (Ia) after single subcutaneous dose of solution formulations in Wistar Han rats
Type: in vivo
Run Parameters: male, Wistar Han, rat, plasma, sc, 50 mg/kg, Wistar Han rats, SC 50 mg/kg, 400 mg/mL solution AA (6.25% poloxamer 188), 3.00 h, Mean n = 4
Property Label: concentration at 3 h (nM)
Write down the numeric answer in nM and omit the unit.

Would you kindly share the measured concentration at 3 h for CC(C)(C#Cc1ccc(-c2ccc(Cl)c3c(NS(C)(=O)=O)nn(CC(F)(F)F)c23)c([C@H](Cc2cc(F)cc(F)c2)NC(=O)Cn2nc(C(F)(F)F)c3c2C(F)(F)[C@@H]2C[C@H]32)n1)S(C)(=O)=O ?
69.5

----------
Protocol Notes: PK of compound of Formula (Ia) after single subcutaneous dose of solution formulations in Wistar Han rats
Format: in vivo
Run Parameters: male, Wistar Han, rat, plasma, sc, 50 mg/kg, mean ± SD, n = 5 rats; SC 50 mg/kg; solution T, 400 mg/mL; read-out: AUC0-336 h
Property Label: AUC(0-t) (µM·h)
Write down the numeric answer in µM·h and omit the unit.

Would you kindly share the measured AUC(0-t) for CC(C)(C#Cc1ccc(-c2ccc(Cl)c3c(NS(C)(=O)=O)nn(CC(F)(F)F)c23)c([C@H](Cc2cc(F)cc(F)c2)NC(=O)Cn2nc(C(F)(F)F)c3c2C(F)(F)[C@@H]2C[C@H]32)n1)S(C)(=O)=O ?
76.4
